sfGFP reporter fluorescence listing for selected variants.
B1: library; a variant is named by its letters at X, in order (parent)
chain: MNIQIGELAKRTACPVVTIRFYEQEGLLPPPGRSRGNFRLYGEEHVERLQFIRHCRSLDMPLSDVRTLLSYRKRPDQDCGEVXMLLDEHIRQVESRIGALLELKHHLVELREACSGARPAQSCGILQXLSXCVCXTRGTTAHXSD

# Variants of: B1
# experiment_summary: sfGFP reporter fluorescence (15 h) (µM FITC); higher = stronger transcriptional activation
# test_context: library round: Round 2; ligand: 30 µM Zn
property: sfGFP reporter fluorescence

{"columns": ["mutation_list", "property", "recorded_number"],
 "data": [
  ["NGDAP P61D D64K L107C", "sfGFP reporter fluorescence", 2.38],
  ["TGSDP H142A", "sfGFP reporter fluorescence", 0.451],
  ["NHDDL E109L I125L", "sfGFP reporter fluorescence", 0.047],
  ["NGDDP M60L D64K E81A", "sfGFP reporter fluorescence", 3.74],
  ["NGADT C134V", "sfGFP reporter fluorescence", 2.64],
  ["NGDDP M60L D64S L107C", "sfGFP reporter fluorescence", 3.58],
  ["NGADP M60L P61N D64K", "sfGFP reporter fluorescence", 2.82],
  ["NGDRP P61N D64A", "sfGFP reporter fluorescence", 1.54],
  ["TGDAL V108L", "sfGFP reporter fluorescence", 0.281],
  ["SGDDP L85Y K104V", "sfGFP reporter fluorescence", 0.248],
  ["NMDDP I3M P61N K104V L107C", "sfGFP reporter fluorescence", 2.79],
  ["TGAPL", "sfGFP reporter fluorescence", 0.301],
  ["NGDAP S130A T136A", "sfGFP reporter fluorescence", 1.11],
  ["NGAKP L107V", "sfGFP reporter fluorescence", 3.38],
  ["NGCAY", "sfGFP reporter fluorescence", 0.277],
  ["NICDP I125L", "sfGFP reporter fluorescence", 0.0531],
  ["NGDAL P61N", "sfGFP reporter fluorescence", 1.57],
  ["TGCDL", "sfGFP reporter fluorescence", 0.0958],
  ["TGDDP R96A K104V", "sfGFP reporter fluorescence", 0.0712],
  ["NISDP L107C", "sfGFP reporter fluorescence", 3.33],
  ["NIAPP", "sfGFP reporter fluorescence", 2.03],
  ["NHCDA", "sfGFP reporter fluorescence", 0.446]
]}
